Each entry below carries its reported TD50 at 0.5 h.
Assay: Rotarod test (acute neurotoxicity, NT)
Details: mouse, in vivo, mice ip
quantity: TD50 at 0.5 h

1) Cc1ccsc1C1CC(=O)N(CCCN2CCN(c3cccc(C(F)(F)F)c3)CC2)C1=O (racemic) : < 100 mg/kg
2) Cc1ccsc1C1CC(=O)N(CCN2CCOCC2)C1=O (racemic) : > 200 mg/kg
3) Cc1ccsc1C1CC(=O)N(CCCN2CCOCC2)C1=O (racemic) : < 200 mg/kg
4) Cc1ccsc1C1CC(=O)N(CC(=O)N2CCN(c3cccc(Cl)c3)CC2)C1=O (racemic) : > 300 mg/kg
5) Cc1ccsc1C1CC(=O)N(CCCN2CCN(c3ccc(Cl)c(Cl)c3)CC2)C1=O (racemic) : > 300 mg/kg

----------
viability at 24 h by entry:
Assay: Hepatotoxicity, PrestoBlue viability assay
Type: cell-based, human
Conditions: human, Hep G2 cells, 1–100 μM, read-out: Hep G2 cell viability
quantity: viability at 24 h

1) Cc1ccsc1C1CC(=O)N(CCCN2CCOCC2)C1=O (racemic) [Compound 4] : > 94%
2) Cc1ccsc1C1CC(=O)N(CCN2CCOCC2)C1=O (racemic) [Compound 3] : > 94%

----------
System: motor impairment on rotarod
Assay: Rotarod test (acute neurotoxicity, NT)
Format: in vivo
Conditions: ip, 100 mg/kg, 0.5 h
// values below are reported NT: number of mice with motor impairment/number of mice tested
quantity: NT: number of mice with motor impairment/number of mice tested

1. Cc1ccsc1C1CC(=O)N(CCCN2CCN(c3ccc(F)cc3)CC2)C1=O (racemic) : 4/4
2. Cc1ccsc1C1CC(=O)N(CC(=O)N2CCN(c3cccc(Cl)c3Cl)CC2)C1=O (racemic) : 0/4
3. Cc1ccsc1C1CC(=O)N(CC(=O)N2CCN(c3ccc(Cl)c(Cl)c3)CC2)C1=O (racemic) : 0/4
4. Cc1ccsc1C1CC(=O)N(CC(=O)N2CCN(c3ccccc3Cl)CC2)C1=O (racemic) : 0/4
5. Cc1ccsc1C1CC(=O)N(CCCN2CCN(c3cccc(C(F)(F)F)c3)CC2)C1=O (racemic) : 4/4
6. Cc1ccsc1C1CC(=O)N(CCN2CCOCC2)C1=O (racemic) : 0/4
7. Cc1ccsc1C1CC(=O)N(CCCN2CCN(c3cccc(Cl)c3)CC2)C1=O (racemic) : 2/4
8. Cc1ccsc1C1CC(=O)N(CC(=O)N2CCN(c3cccc(C(F)(F)F)c3)CC2)C1=O (racemic) : 1/4
9. Cc1ccsc1C1CC(=O)N(CCCN2CCN(c3ccc(Cl)c(Cl)c3)CC2)C1=O (racemic) : 0/4
10. Cc1ccsc1C1CC(=O)N(CC(=O)N2CCN(c3ccc(F)cc3)CC2)C1=O (racemic) : 0/4
11. Cc1ccsc1C1CC(=O)N(CCCN2CCOCC2)C1=O (racemic) : 0/4
12. Cc1ccsc1C1CC(=O)N(CC(=O)N2CCOCC2)C1=O (racemic) : 0/4
13. Cc1ccsc1C1CC(=O)N(CC(=O)N2CCN(c3cccc(Cl)c3)CC2)C1=O (racemic) : 0/4
14. Cc1ccsc1C1CC(=O)N(CC(=O)N2CCN(c3ccc(Cl)cc3)CC2)C1=O (racemic) : 0/4
15. Cc1ccsc1C1CC(=O)N(CCCN2CCN(c3ccc(Cl)cc3)CC2)C1=O (racemic) : 0/4
